Biological target: Caspase-2 (Homo sapiens)
Sequence (P42575 whole entry): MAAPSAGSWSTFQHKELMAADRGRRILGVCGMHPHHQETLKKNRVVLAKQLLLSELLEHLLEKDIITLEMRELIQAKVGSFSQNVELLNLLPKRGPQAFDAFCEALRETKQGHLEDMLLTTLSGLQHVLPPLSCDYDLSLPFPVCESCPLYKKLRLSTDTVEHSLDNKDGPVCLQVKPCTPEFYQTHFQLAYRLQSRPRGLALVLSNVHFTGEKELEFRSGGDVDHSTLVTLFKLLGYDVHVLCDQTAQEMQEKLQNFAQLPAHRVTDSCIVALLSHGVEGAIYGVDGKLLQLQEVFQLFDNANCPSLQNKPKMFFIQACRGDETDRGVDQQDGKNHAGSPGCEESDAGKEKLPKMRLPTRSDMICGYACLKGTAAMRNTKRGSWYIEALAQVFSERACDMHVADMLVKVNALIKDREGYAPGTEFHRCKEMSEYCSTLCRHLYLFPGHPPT
Assay: Inhibition of human Caspase 2
pIC50: −log10 of the molar value.
experimental_endpoint: pIC50

INSERT INTO assay_data (compound, result) VALUES
  ('COc1cccc2[nH]c(C(=O)N[C@@H](CC(C)C)C(=O)N[C@@H](C[C@@H]3CCNC3=O)C(=O)CO)cc12 [PF-00835231]', '< 5.00');

###

Target: Caspase-2 (Homo sapiens, UniProt P42575)
Sequence (P42575 whole entry): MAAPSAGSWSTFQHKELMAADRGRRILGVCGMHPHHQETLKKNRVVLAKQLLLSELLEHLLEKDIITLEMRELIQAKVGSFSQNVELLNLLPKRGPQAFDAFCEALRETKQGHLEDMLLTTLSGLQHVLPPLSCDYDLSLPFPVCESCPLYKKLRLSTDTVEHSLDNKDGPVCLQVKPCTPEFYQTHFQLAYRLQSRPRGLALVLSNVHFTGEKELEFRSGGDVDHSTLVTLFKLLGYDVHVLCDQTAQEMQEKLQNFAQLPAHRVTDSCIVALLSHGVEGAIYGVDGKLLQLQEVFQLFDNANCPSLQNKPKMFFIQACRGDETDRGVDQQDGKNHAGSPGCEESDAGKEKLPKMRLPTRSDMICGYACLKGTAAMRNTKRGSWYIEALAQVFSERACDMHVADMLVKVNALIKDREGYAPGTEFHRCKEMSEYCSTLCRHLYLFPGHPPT
Experiment: Inhibition of human Caspase 2 at 10 uM relative to control
experimental_endpoint: inhibition at 10 µM (%)

INSERT INTO assay_data (compound, experimental_endpoint, result_number) VALUES
  ('COc1cccc2[nH]c(C(=O)N[C@@H](CC(C)C)C(=O)N[C@@H](C[C@@H]3CCNC3=O)C(=O)CO)cc12 [PF-00835231]', 'inhibition at 10 µM', -20);

###

target: thrombin (Homo sapiens, UniProt P00734); test: Inhibition of human thrombin at 10 uM relative to control
experimental_endpoint: inhibition at 10 µM (%)

INSERT INTO measurements (compound, system_tested, reading_unit, result_number) VALUES
  ('COc1cccc2[nH]c(C(=O)N[C@@H](CC(C)C)C(=O)N[C@@H](C[C@@H]3CCNC3=O)C(=O)CO)cc12 [PF-00835231]', 'thrombin (Homo sapiens, UniProt P00734)', '%', -28);

###

assay: Inhibition of human pepsin
experimental_endpoint: IC50

INSERT INTO assay_data (compound, result) VALUES
  ('COc1cccc2[nH]c(C(=O)N[C@@H](CC(C)C)C(=O)N[C@@H](C[C@@H]3CCNC3=O)C(=O)CO)cc12 [PF-00835231]', '> 10 µM');

###

experiment: Cytotoxicity against African green monkey Vero 76 cells measured after 66 hrs by neutral red method or cell titer glo-based luminescence assay; settings: chlorocebus sabaeus
experimental_endpoint: CC50 at 66 h (µM)

INSERT INTO results (compound, result_number) VALUES
  ('COc1cccc2[nH]c(C(=O)N[C@@H](CC(C)C)C(=O)N[C@@H](C[C@@H]3CCNC3=O)C(=O)CO)cc12 [PF-00835231]', 452);

###

test: Volume of distribution at steady state in dog at 2 mg/kg, iv; assay type: ADME, organism-based, Canis lupus familiaris; settings: in vivo, read-out: Vdss
experimental_endpoint: Vd (L/kg)

INSERT INTO results (smiles_str, reading_unit, result_number) VALUES
  ('COc1cccc2[nH]c(C(=O)N[C@@H](CC(C)C)C(=O)N[C@@H](C[C@@H]3CCNC3=O)C(=O)CO)cc12', 'L/kg', 0.4);

###

tested on: pepsin; test: Inhibition of human pepsin at 10 uM relative to control
experimental_endpoint: inhibition at 10 µM (%)

INSERT INTO assay_data (smiles_str, system_tested, experimental_endpoint, reading_unit, result_number) VALUES
  ('COc1cccc2[nH]c(C(=O)N[C@@H](CC(C)C)C(=O)N[C@@H](C[C@@H]3CCNC3=O)C(=O)CO)cc12', 'pepsin', 'inhibition at 10 µM', '%', -2);

###

system: SARS-CoV; test: Antiviral activity against SARS COV-1 infected in monkey vero 76 cells assessed as reduction in virus-induced cytopathic effect measured after 66 hrs by neutral red method or cell titer glo-based luminescence assay; format: functional, organism-based; details: Severe acute respiratory syndrome-related coronavirus
# Lookup of reported EC50 keyed by entry
experimental_endpoint: EC50

INSERT INTO measurements (smiles_str, experimental_endpoint, result) VALUES
  ('COCC(=O)[C@H](C[C@@H]1CCNC1=O)NC(=O)[C@H](CC(C)(C)C)NC(=O)[C@H]1CCCO1', 'EC50', '> 100 µM'),
  ('COc1cccc2[nH]c(C(=O)N[C@@H](CCC(C)C)C(=O)N[C@@H](C[C@@H]3CCNC3=O)C(=O)CO)cc12', 'EC50', '33 µM'),
  ('COCC(=O)[C@H](C[C@@H]1CCNC1=O)NC(=O)[C@H](CC(C)C)NC(=O)c1cc2ccccc2[nH]1', 'EC50', '45 µM'),
  ('CCOCC(=O)[C@H](C[C@@H]1CCNC1=O)NC(=O)[C@H](CC(C)(C)C)NC(=O)c1cc2ccccc2[nH]1', 'EC50', '20 µM'),
  ('COc1cccc2[nH]c(C(=O)N(C)[C@@H](CC(C)C)C(=O)N[C@@H](C[C@@H]3CCNC3=O)C(=O)CO)cc12', 'EC50', '19 µM'),
  ('COc1cccc2[nH]c(C(=O)N[C@@H](CC3CCCCC3)C(=O)N[C@@H](C[C@@H]3CCNC3=O)C(=O)CO)cc12', 'EC50', '14 µM'),
  ('COc1cccc2[nH]c(C(=O)N[C@@H](CC(C)(C)C)C(=O)N[C@@H](C[C@@H]3CCNC3=O)C(=O)CO)cc12', 'EC50', '10 µM'),
  ('COc1cccc2[nH]c(C(=O)N[C@@H](CC(C)C)C(=O)N[C@@H](C[C@@H]3CCNC3=O)C(=O)COC(=O)c3c(Cl)cccc3Cl)cc12', 'EC50', '0.29 µM'),
  ('CCCC[C@H](NC(=O)c1cc2c(OC)cccc2[nH]1)C(=O)N[C@@H](C[C@@H]1CCNC1=O)C(=O)CO', 'EC50', '10 µM');
